B1: Connector enhancer of kinase suppressor of ras 2, residues 9 to 71; numbered along this chain, Q8WXI2 (parent)
chain: SKWSPSQVVDWMKGLDDCLQQYIKNFEREKISGDQLLRITHQELEDLGVSRIGHQELILEAVD

Variants of: B1
assay.info: abundance fitness (aPCA) (normalised: wild type 0, dead -1); higher = more abundant; growth selection in yeast, the domain comes from the species named
condition.context: Homo sapiens
Binning rule for recorded abundance fitness: low class (below -0.5), middle class (-0.5 to below -0.2), high class (-0.2 or more)

{"mutant.name": "E43Y", "class.label": "middle class"}
{"mutant.name": "V49H", "class.label": "low class"}
{"mutant.name": "Q20M", "class.label": "high class"}
{"mutant.name": "L15H", "class.label": "low class"}
{"mutant.name": "Y22D", "class.label": "low class"}

Exercise: // bin(item) where item = "D34V"
Key: high class

Exercise: Category of "L19Y" :
Key: low class

Exercise: For this variant, which bin applies? "G14V"
Key: low class

Exercise: Lab note: sort "L36S" into the matching abundance fitness band.
Key: low class

Exercise: Note: place this variant into its band. Item: "Q20H"
Key: high class
